# credit: ChEMBL document CHEMBL1151859

Provide the recorded IC50 for the entries that follow.
System under test: Lethal factor (Bacillus anthracis, UniProt P15917)
Sequence (P15917 whole entry): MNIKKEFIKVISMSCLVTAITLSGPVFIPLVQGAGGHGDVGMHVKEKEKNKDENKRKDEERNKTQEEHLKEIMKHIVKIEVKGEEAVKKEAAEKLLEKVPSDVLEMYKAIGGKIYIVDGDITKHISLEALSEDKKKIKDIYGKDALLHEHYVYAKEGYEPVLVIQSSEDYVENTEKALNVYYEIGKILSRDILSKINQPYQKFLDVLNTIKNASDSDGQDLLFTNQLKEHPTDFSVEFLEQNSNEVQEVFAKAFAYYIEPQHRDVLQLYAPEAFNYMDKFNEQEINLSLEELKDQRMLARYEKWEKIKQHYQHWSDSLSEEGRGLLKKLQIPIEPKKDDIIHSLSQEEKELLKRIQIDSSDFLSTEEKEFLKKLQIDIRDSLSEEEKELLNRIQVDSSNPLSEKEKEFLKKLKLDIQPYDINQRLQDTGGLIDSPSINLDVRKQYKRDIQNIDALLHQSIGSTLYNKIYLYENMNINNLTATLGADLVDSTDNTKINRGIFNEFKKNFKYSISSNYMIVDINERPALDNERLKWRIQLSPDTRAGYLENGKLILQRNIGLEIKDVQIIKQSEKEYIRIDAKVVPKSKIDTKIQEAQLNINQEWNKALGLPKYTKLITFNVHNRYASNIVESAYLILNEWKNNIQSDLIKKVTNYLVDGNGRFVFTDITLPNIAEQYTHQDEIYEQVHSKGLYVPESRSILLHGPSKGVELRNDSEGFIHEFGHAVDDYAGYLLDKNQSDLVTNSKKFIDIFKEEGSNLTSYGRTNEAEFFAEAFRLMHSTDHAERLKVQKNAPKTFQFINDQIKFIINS

Query: Look at this compound and give its reported IC50. Cc1csc(N(S(=O)(=O)c2cccc(C(F)(F)F)c2)S(=O)(=O)c2cccc(C(F)(F)F)c2)c1-c1nc2ccccc2s1
Response: > 100 µM

Query: Please look up its IC50: Cc1csc(NS(=O)(=O)c2cccc(Cl)c2)c1-c1nc2ccccc2s1
Response: > 100 µM

Query: # get_value(readout='IC50', item= Cc1ccc(NS(=O)(=O)c2cccs2)cc1Cl )
Response: > 100 µM
